Tested on: biotinyl-Phe-oxazolone
Assay: self-aminoacylation, catalytic enhancement (BFO) (fold over background); higher = more active; k-Seq, kA / k0A0; sequences stand for … in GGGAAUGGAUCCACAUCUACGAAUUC…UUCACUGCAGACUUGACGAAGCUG
Fewer inactive variants are shown than the library holds.
Measure: self-aminoacylation
Answer with a bare number; do not write a unit.

Would you please look over these solved cases?
{"columns": ["Seq string", "Tested on", "Reported result"],
 "data": [
  ["AUUACCCUAUUCAUCGAGUGA [Fam2.1 aminoacylation ribozyme variant]", "biotinyl-Phe-oxazolone", 17.3],
  ["AAGUUUGCUCAUCGUCGCAAG [Fam3.1 aminoacylation ribozyme variant]", "biotinyl-Phe-oxazolone", 3.33],
  ["CUACAUCAAACAAUCGGUCUA [Fam1A.1 aminoacylation ribozyme variant]", "biotinyl-Phe-oxazolone", 1.61],
  ["AUUCCCCUGGUCAUCGAGUGU [Fam2.1 aminoacylation ribozyme variant]", "biotinyl-Phe-oxazolone", 15.2],
  ["AAGUUUGCUAGUAGUCGCAAG [Fam3.1 aminoacylation ribozyme variant]", "biotinyl-Phe-oxazolone", 1.13],
  ["AAGUUUACUAAGAGUCGCAAG [Fam3.1 aminoacylation ribozyme variant]", "biotinyl-Phe-oxazolone", 1.93],
  ["AUUCACCCACGUCAUCGGGUG [Fam2.2 aminoacylation ribozyme variant]", "biotinyl-Phe-oxazolone", 37.1],
  ["AUUACCCUGGUAUUCGAGUGA [Fam2.1 aminoacylation ribozyme variant]", "biotinyl-Phe-oxazolone", 42.4],
  ["CUACUUCAGGCAAUCGGUCUG [Fam1A.1 aminoacylation ribozyme variant]", "biotinyl-Phe-oxazolone", 1.02],
  ["CCACACUUCAUGCAAACGGUC [Fam1B.1 aminoacylation ribozyme variant]", "biotinyl-Phe-oxazolone", 0.769]
]}

Prompt: Report self-aminoacylation for AAGUUUGCUAAGAGUCGCAAU [Fam3.1 aminoacylation ribozyme variant] tested on biotinyl-Phe-oxazolone.
Response: 1.24

Prompt: Can you check CGACCUCAAACAAUCGGUCUG [Fam1A.1 aminoacylation ribozyme variant] next?
Response: 3.54

Prompt: Can you check AAGUUUACUAAUACUCGCAAG [Fam3.1 aminoacylation ribozyme variant] next?
Response: 1.55

Prompt: Subsequent entry: AAGUUAGCUAAGAGUCGCAAG [Fam3.1 aminoacylation ribozyme variant]
Response: 2.38

Prompt: Try this sequence next: AAGGUUUCUAAUAGUCGCAAG [Fam3.1 aminoacylation ribozyme variant]
Response: 2.65

* * *

As shown below, each of these sequences has a reported self-aminoacylation value.
Test system: biotinyl-Met-oxazolone
Assay: self-aminoacylation, catalytic enhancement (BMO) (fold over background); higher = more active; k-Seq, kA / k0A0; sequences stand for … in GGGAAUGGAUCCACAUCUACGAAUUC…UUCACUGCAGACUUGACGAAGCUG
Fewer inactive variants are shown than the library holds.
Lab note: write the figure by itself, no unit.

{"columns": ["Seq string", "Measure", "Reported result"],
 "data": [
  ["CUAUUUGAAACAAUCGGUCUG [Fam1A.1 aminoacylation ribozyme variant]", "self-aminoacylation", 0.815]
]}

Prompt: What measured self-aminoacylation goes with AUUACCCGAGUCAUCGAGUGA [Fam2.1 aminoacylation ribozyme variant] ?
Response: 8.55

Prompt: Same for CCACUCCAAACAAUCGGUCUG [Fam1A.1 aminoacylation ribozyme variant]
Response: 1.13

Prompt: Lookup AUUCACCUAGCUCACCGGGUG [Fam2.2 aminoacylation ribozyme variant]
Response: 3.66

* * *

Test system: biotinyl-Val-oxazolone
Assay: self-aminoacylation, catalytic enhancement (BVO) (fold over background); higher = more active; k-Seq, kA / k0A0; sequences stand for … in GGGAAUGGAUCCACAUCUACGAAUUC…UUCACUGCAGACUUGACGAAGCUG
Fewer inactive variants are shown than the library holds.
Overview of reported self-aminoacylation across a group of sequences:
Number only, please.

Worked examples follow.
{"columns": ["Seq string", "self-aminoacylation"],
 "data": [
  ["AUUACCCUGAUAAUCGAGUGA [Fam2.1 aminoacylation ribozyme variant]", 4.59],
  ["CUUACCCUUGUCAUCGAGUGA [Fam2.1 aminoacylation ribozyme variant]", 3.03],
  ["CUACUUUCAACAAUCGGUCUG [Fam1A.1 aminoacylation ribozyme variant]", 1.06],
  ["CUACUUCAAAUCAUCGGUCUG [Fam1A.1 aminoacylation ribozyme variant]", 0.855],
  ["AUUCACUUAGGUCAUCGCGUG [Fam2.2 aminoacylation ribozyme variant]", 6.11],
  ["AUUCACCUAGAGCAUCGGGUG [Fam2.2 aminoacylation ribozyme variant]", 2.06],
  ["AAGUUUGCUAAUGGUCGCCAG [Fam3.1 aminoacylation ribozyme variant]", 0.896],
  ["AUUACCCUUGGCAUCGAGUGA [Fam2.1 aminoacylation ribozyme variant]", 3.39]
]}

Now look at this entry.
Prompt: Look up self-aminoacylation for this sequence: AUUACCCUGGUCCUCGAGUAA [Fam2.1 aminoacylation ribozyme variant]
Response: 1.36

* * *

System: biotinyl-Leu-oxazolone
Assay: self-aminoacylation, catalytic enhancement (BLO) (fold over background); higher = more active; k-Seq, kA / k0A0; sequences stand for … in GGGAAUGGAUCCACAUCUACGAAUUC…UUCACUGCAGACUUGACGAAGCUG
Fewer inactive variants are shown than the library holds.
Consider the reported self-aminoacylation of an entry and match it to a band in bin 0: < 1; bin 1: ≥ 1 and < 2; bin 2: ≥ 2

Would you please look over these solved cases?
{"columns": ["Seq string", "Group label"],
 "data": [
  ["GUACUCCAAACAAUCGGUCUG [Fam1A.1 aminoacylation ribozyme variant]", "bin 0"],
  ["AACUUUGCUACUAGUCGCAAG [Fam3.1 aminoacylation ribozyme variant]", "bin 1"],
  ["AGUACCCUGGUCAUCGAGUGU [Fam2.1 aminoacylation ribozyme variant]", "bin 2"]
]}

Prompt: Exam item: assign GAGUUUGCUAAUAGUCGCAAA [Fam3.1 aminoacylation ribozyme variant] to the correct category.
Response: bin 1

* * *

Test system: biotinyl-Ile-oxazolone
Assay: self-aminoacylation, catalytic enhancement (BIO) (fold over background); higher = more active; k-Seq, kA / k0A0; sequences stand for … in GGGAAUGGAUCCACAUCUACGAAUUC…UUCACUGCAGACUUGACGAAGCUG
This sample holds only a part of the variants without activity.
Would you mind labelling by self-aminoacylation? At or over 1 is satisfied, under is not satisfied.

Please review the entries below; each comes with its answer.
{"columns": ["Seq string", "Group label"],
 "data": [
  ["AUUACCCUGGUUAUCGUGUGA [Fam2.1 aminoacylation ribozyme variant]", "satisfied"],
  ["CCACUCUUCAAGCAAUCGGUU [Fam1B.1 aminoacylation ribozyme variant]", "satisfied"],
  ["AAGUUUACUAAUACUCGCAAG [Fam3.1 aminoacylation ribozyme variant]", "satisfied"]
]}

Prompt: Does CCACACUGUAAGCAAUCGGUC [Fam1B.1 aminoacylation ribozyme variant] have a reported self-aminoacylation of at least 1?
Response: satisfied

Prompt: Same again, this time with AUUCACCUUGGUCAUCGGUUG [Fam2.2 aminoacylation ribozyme variant]
Response: not satisfied

Prompt: Entry to check: AUACACCCAGGUCAUCGGGUG [Fam2.2 aminoacylation ribozyme variant]
Response: satisfied

Prompt: Another sequence to look at: CUACUUCGAACAAUCGGGCUG [Fam1A.1 aminoacylation ribozyme variant]
Response: satisfied

Prompt: Subsequent entry: AUUACCCUGCGCAUCGAGUGA [Fam2.1 aminoacylation ribozyme variant]
Response: satisfied

Prompt: Also need CGACUUCAAACAAGCGGUCUG [Fam1A.1 aminoacylation ribozyme variant] , thanks.
Response: satisfied

Prompt: Also check AGCACCCUGGUCAUCGAGUGA [Fam2.1 aminoacylation ribozyme variant]
Response: satisfied

Prompt: // repeat for AUUCACCUAGGGCAUCGCGUG [Fam2.2 aminoacylation ribozyme variant] and report
Response: satisfied

Prompt: Can you check CCACAAUUCAAGCAGUCGGUC [Fam1B.1 aminoacylation ribozyme variant] next?
Response: satisfied

Prompt: Queued: UUUCACCUAGUUCAUCGGGUG [Fam2.2 aminoacylation ribozyme variant]
Response: satisfied

Prompt: Then CCACACUUCAAGCAAUUGGUC [Fam1B.1 aminoacylation ribozyme variant] ?
Response: not satisfied

Prompt: Repeat for the following sequence: AAGUUUGCUAAUGGUCGCCAG [Fam3.1 aminoacylation ribozyme variant]
Response: satisfied

* * *

Test system: biotinyl-Leu-oxazolone
Assay: self-aminoacylation, catalytic enhancement (BLO) (fold over background); higher = more active; k-Seq, kA / k0A0; sequences stand for … in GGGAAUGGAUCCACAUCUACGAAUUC…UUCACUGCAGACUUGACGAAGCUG
This sample holds only a part of the variants without activity.
# self-aminoacylation per record follows
// no unit, no text: just the number

{"columns": ["Seq string", "self-aminoacylation"],
 "data": [
  ["CCACACUUCAAGCAAUUGGAC [Fam1B.1 aminoacylation ribozyme variant]", 0.583],
  ["AAGUUUGCUAAGUGUCGCAAG [Fam3.1 aminoacylation ribozyme variant]", 0.786],
  ["AAGUUUGCUAAUAGGCGCAGG [Fam3.1 aminoacylation ribozyme variant]", 0.907]
]}

Prompt: Any idea what self-aminoacylation was measured for AUUACCGGGGUCAUCGAGUGA [Fam2.1 aminoacylation ribozyme variant] ?
Response: 6.14

Prompt: Then this sequence: AUUAGCCUGGUCAUCAAGUGA [Fam2.1 aminoacylation ribozyme variant]
Response: 4.41

Prompt: AUGCACCUAGGUCUUCGGGUG [Fam2.2 aminoacylation ribozyme variant] ?
Response: 4.14
